Provide the recorded EC50 for the entries that follow.
- measured on: hGIPR (Homo sapiens, UniProt P48546)
- Sequence (P48546 22-466): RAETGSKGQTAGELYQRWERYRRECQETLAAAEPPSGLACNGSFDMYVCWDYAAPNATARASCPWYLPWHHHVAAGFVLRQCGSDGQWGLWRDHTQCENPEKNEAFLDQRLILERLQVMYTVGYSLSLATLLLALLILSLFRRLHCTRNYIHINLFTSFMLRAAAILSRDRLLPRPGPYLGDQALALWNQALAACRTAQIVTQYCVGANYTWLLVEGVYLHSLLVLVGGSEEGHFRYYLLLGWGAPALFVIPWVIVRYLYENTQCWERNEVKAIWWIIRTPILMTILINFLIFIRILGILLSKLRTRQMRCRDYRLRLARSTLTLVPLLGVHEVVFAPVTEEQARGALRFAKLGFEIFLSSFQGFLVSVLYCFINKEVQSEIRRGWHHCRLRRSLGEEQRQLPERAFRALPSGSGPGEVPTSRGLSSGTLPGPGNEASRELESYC
- protocol details: Functional cAMP activity in the presence of 1% HSA
- Format: cell-based
- assay setup: read-out: cAMP Rel EC50, hGIPR
Starred links: 1 amine or outer side, 2 acyl side, 3 side chain; linkers in the order of their positions; H or OH if unused. Non-standard residues stand in square brackets, D forms with d. Groups on a side chain read outwards from the residue. *: point of attachment. C18 diacid = O=C(O)CCCCCCCCCCCCCCCCC(=O)*; αMePhe(2-F) = C[C@](N)(Cc1ccccc1F)C(=O)O; γGlu = O=C(O)[C@H](CCC(=O)[*:2])N[*:1]; αMe4Pal = C[C@](N)(Cc1ccncc1)C(=O)O; αMeY = C[C@](N)(Cc1ccc(O)cc1)C(=O)O; 4Pal = N[C@@H](Cc1ccncc1)C(=O)O; αMeL = CC(C)C[C@](C)(N)C(=O)O; αMeS = C[C@](N)(CO)C(=O)O; Orn = NCCC[C@H](N)C(=O)O; AEEA = NCCOCCOCC(=O)O; Aib = CC(C)(N)C(=O)O
Give bare numbers, in nM.

substance	measure name	measurement unit	observed
H-Y[Aib]QGTFTSDFS[Orn][αMeL]LDKK([AEEA-γGlu-C18 diacid])AQ[Aib]AFIEWLLEGGPSSGAPPPTGS-NH2 [Example 250]	EC50	nM	11.7
H-Y[Aib]QGT[αMePhe(2-F)]TSD[4Pal][αMeS]I[αMeL]LD[Orn]K([AEEA-γGlu-γGlu-C18 diacid])AQ[αMe4Pal]EFI[dE][αMeY]LIEGGPSSGAPPPSGGGE-NH2 [Example 1180]	EC50	nM	0.341

Count: 3. Required value per item: EC50.
1. H-Y[Aib]QGTFTSD[4Pal]SQ[αMeL]LDKK([AEEA-γGlu-C18 diacid])AQ[αMe4Pal]AFIE[αMe4Pal]LIE[Aib]GPSSGAPPPSGTE-NH2 [Example 1116]
2. H-Y[Aib]QGTFTSDFS[Orn][αMeL]LDKK([AEEA-γGlu-C18 diacid])AQ[αMe4Pal]AFIEYLIE[Aib]GPSSGAPPPSGS-NH2 [Example 811]
3. H-Y[Aib]QGTFTSDFS[Orn][αMeL]LDKK([AEEA-γGlu-C18 diacid])AQ[Aib]AFIEWLLEGGSSSGAPPPSGE-NH2 [Example 172]

Reply text:
1. 10.8
2. 25.8
3. 29.3
